# credit: PubChem BioAssay (NCI)

// TGI lookup, one value per entry
Test system: A549 NSCLC
ASSAY DETAILS: NCI tumour cell line growth inhibition, 48 h
Where a SMILES comes first, the peptide text is derived from it. Side-chain parts run from the residue outwards. The star is where a group is joined. Cbz = O=C(OCc1ccccc1)*; Boc = CC(C)(C)OC(=O)*
QUANTITY MEASURED: TGI

[
  {
    "MOLECULE": "CN(C)C=NCC(O)c1ccccc1 (configuration not stated)",
    "RESULT": "> 100 µM"
  },
  {
    "MOLECULE": "CN(C)CC1CCCCCC(Br)C1=O (configuration not stated)",
    "RESULT": "> 100 µM"
  },
  {
    "MOLECULE": "CCOc1ccc(NCC2CC/C(=C\\c3ccc(Cl)cc3)C2=O)cc1 (configuration not stated)",
    "RESULT": "> 100 µM"
  },
  {
    "MOLECULE": "CC(C)(C)OC(=O)NC(CCCCNC(=O)CNC(=O)OCc1ccccc1)C(=O)NC(CCCCNC(=O)CNC(=O)OCc1ccccc1)C(=O)NC(CCCCNC(=O)CNC(=O)OCc1ccccc1)C(=O)NC(CCCCNC(=O)CNC(=O)OCc1ccccc1)C(=O)O (configuration not stated) (Boc-K([Gly-Cbz])K([Gly-Cbz])K([Gly-Cbz])K([Gly-Cbz])-OH; configuration not given here)",
    "RESULT": "> 100 µM"
  },
  {
    "MOLECULE": "COc1cc(-c2nc(-c3ccc(-c4nc5ccc(F)cc5[nH]4)cc3)no2)cc(OC)c1OC",
    "RESULT": "14.6 µM"
  },
  {
    "MOLECULE": "Cn1cnc(SC2=C3C(=O)C=C4S[C@H]5C[C@]42c2c(c(O)c4c6c2=[N+]3CCC=6C=N4)N5)c1CC(N)C(=O)O (some centres not stated)",
    "RESULT": "56.7 µM"
  },
  {
    "MOLECULE": "CCOC(=O)c1ccc(N(C=O)CCC(=O)CCl)cc1",
    "RESULT": "12.7 µM"
  },
  {
    "MOLECULE": "O=C1O[C@H]2C3C4CCC(C4[C@@H]2I)[C@H]13 (some centres not stated)",
    "RESULT": "> 100 µM"
  },
  {
    "MOLECULE": "Cn1nc2ccc3nccc(NCCNCCO)c3c2n1",
    "RESULT": "> 100 µM"
  },
  {
    "MOLECULE": "CCOC(=O)C(=O)Nc1ccccc1OCC",
    "RESULT": "> 100 µM"
  },
  {
    "MOLECULE": "COc1ccc(C(=O)/C=C/c2cc(-c3ccc4c(c3)OCO4)n[nH]2)cc1OC",
    "RESULT": "15.8 µM"
  },
  {
    "MOLECULE": "CC(=O)N1C(Nc2cccc3nc(C)ccc23)CCN1c1ccccc1 (configuration not stated)",
    "RESULT": "> 10 µM"
  }
]

---

System: SK-OV-3 ovarian
ASSAY DETAILS: NCI tumour cell line growth inhibition, 48 h
# TGI per entry

[
  {
    "COMPOUND": "CC1=NN(C(=O)Cc2ccccc2)C(=O)/C1=C\\c1ccccc1O",
    "EXPERIMENTAL TARGET": "SK-OV-3 ovarian",
    "TGI": "> 100 µM"
  },
  {
    "COMPOUND": "CN(C)c1ccc2cc3ccc(N(C)C)cc3nc2c1",
    "EXPERIMENTAL TARGET": "SK-OV-3 ovarian",
    "TGI": "13.9 µM"
  },
  {
    "COMPOUND": "O=Cc1c(Br)[nH]c2ccccc12",
    "EXPERIMENTAL TARGET": "SK-OV-3 ovarian",
    "TGI": "> 100 µM"
  },
  {
    "COMPOUND": "CC(O)C(NC(=O)c1ccccc1)C(=O)N(Cc1ccccc1)Cc1ccccc1 (centres undefined)",
    "EXPERIMENTAL TARGET": "SK-OV-3 ovarian",
    "TGI": "> 100 µM"
  },
  {
    "COMPOUND": "CC(C)C[CH2][Ge]([CH2]CC(C)C)([CH2]CC(C)C)[CH2]CC(C)C",
    "EXPERIMENTAL TARGET": "SK-OV-3 ovarian",
    "TGI": "> 100 µM"
  },
  {
    "COMPOUND": "COc1cc2c(c(OC)c1OC)-c1ccc(SC)c(=O)cc1[C@@H](NCc1cccc([N+](=O)[O-])c1)CC2",
    "EXPERIMENTAL TARGET": "SK-OV-3 ovarian",
    "TGI": "> 100 µM"
  },
  {
    "COMPOUND": "CC(C)=CC(=O)N[C@@H]1CC2CCC3C(CC[C@@]4(C)C3CC[C@@H]4C(C)N(C)C)[C@@]2(C)C[C@@H]1O (some centres undefined)",
    "EXPERIMENTAL TARGET": "SK-OV-3 ovarian",
    "TGI": "24.6 µM"
  },
  {
    "COMPOUND": "OC(C1CCCCCCCCCC1)C(O)C1CCCCCCCCCC1 (centres undefined)",
    "EXPERIMENTAL TARGET": "SK-OV-3 ovarian",
    "TGI": "> 100 µM"
  },
  {
    "COMPOUND": "COc1ccc(Cn2c3ccc([N+](=O)[O-])cc3c(=O)n2Cc2ccccn2)cc1",
    "EXPERIMENTAL TARGET": "SK-OV-3 ovarian",
    "TGI": "> 100 µM"
  }
]

---

System: M14 melanoma
ASSAY DETAILS: NCI tumour cell line growth inhibition, 48 h

[
  {
    "COMPOUND": "O=c1[nH]c(=O)n(COCc2ccccc2)c2ccccc12",
    "EXPERIMENTAL TARGET": "M14 melanoma",
    "TGI": "> 100 µM"
  },
  {
    "COMPOUND": "O=S1c2ccccc2NC(c2ccc3ccccc3c2)CC1c1ccccc1 (stereo not given)",
    "EXPERIMENTAL TARGET": "M14 melanoma",
    "TGI": "> 100 µM"
  },
  {
    "COMPOUND": "Nc1ccccc1OCCCOc1ccccc1N",
    "EXPERIMENTAL TARGET": "M14 melanoma",
    "TGI": "> 100 µM"
  },
  {
    "COMPOUND": "N#Cc1c(N2CCCC2)nsc1Nc1ccc(F)cc1",
    "EXPERIMENTAL TARGET": "M14 melanoma",
    "TGI": "> 100 µM"
  },
  {
    "COMPOUND": "C=C(C)[C@@H]1CC[C@]2(C(=O)O)CC[C@]3(C)[C@H](CC[C@@H]4[C@@]5(C)C/C(=C/c6cccc(I)c6)C(=O)C(C)(C)[C@@H]5CC[C@]43C)[C@@H]12",
    "EXPERIMENTAL TARGET": "M14 melanoma",
    "TGI": "5.21 µM"
  },
  {
    "COMPOUND": "COc1cc(C2c3cc(OC)c(OC)c(O)c3C(=O)C3CCC(=O)N32)cc(OC)c1OC (stereo not given)",
    "EXPERIMENTAL TARGET": "M14 melanoma",
    "TGI": "> 100 µM"
  },
  {
    "COMPOUND": "CCOc1cc2c(=O)oc3c(OC)ccc4ccc(c1OC)c2c43",
    "EXPERIMENTAL TARGET": "M14 melanoma",
    "TGI": "> 100 µM"
  },
  {
    "COMPOUND": "O=C1C=C(O)c2c(O)ccc(O)c2C1=O",
    "EXPERIMENTAL TARGET": "M14 melanoma",
    "TGI": "> 100 µM"
  },
  {
    "COMPOUND": "O=C(Cc1ccc(Nc2ccnc(C(F)(F)F)c2)cc1)Nc1cc(Cl)ccc1O",
    "EXPERIMENTAL TARGET": "M14 melanoma",
    "TGI": "33.6 µM"
  },
  {
    "COMPOUND": "COc1ccc(N=Nc2c(-c3ccccc3)nn(C(=O)CC(=O)Nc3ccccc3Cl)c2-c2ccccc2)cc1",
    "EXPERIMENTAL TARGET": "M14 melanoma",
    "TGI": "> 100 µM"
  }
]

---

Tested on: SN12C renal
ASSAY DETAILS: NCI tumour cell line growth inhibition, 48 h
Documented TGI across a set of molecules

[
  {
    "MOLECULE": "CC(=O)O[C@H]1C[C@](C)(O)[C@@]23CC([C@@H](OC(=O)C(C)(C)O)[C@@H](OC(C)=O)C2(COC(=O)c2ccccc2)[C@H]1OC(C)=O)C(C)(C)O3 (some centres undefined)",
    "EXPERIMENTAL TARGET": "SN12C renal",
    "TGI": "> 100 µM"
  },
  {
    "MOLECULE": "Cc1cn([C@@H]2C[C@H](CO)[C@@H]2O)c(=O)[nH]c1=O",
    "EXPERIMENTAL TARGET": "SN12C renal",
    "TGI": "> 100 µM"
  },
  {
    "MOLECULE": "O=C(Nc1ccc(Sc2ccc(N=Nc3c(O)c(S(=O)(=O)O)cc4cc(S(=O)(=O)O)ccc34)cc2)cc1)c1ccc(N=Nc2c(O)c(S(=O)(=O)O)cc3cc(S(=O)(=O)O)ccc23)cc1",
    "EXPERIMENTAL TARGET": "SN12C renal",
    "TGI": "> 100 µM"
  },
  {
    "MOLECULE": "O=C1CCCCN1C(=O)c1ccc([N+](=O)[O-])cc1",
    "EXPERIMENTAL TARGET": "SN12C renal",
    "TGI": "> 100 µM"
  }
]
